# Test system: RPMI-8226 leukemia
# protocol.details: NCI tumour cell line growth inhibition, 48 h; in the data active = GI50 below about 0.43 µM; inactive = the rest
Mark one answer only. Choices: active, inactive

# example entries with known answers
{"columns": ["compound", "assigned.label"],
 "data": [
  ["O=Cc1cn(Cc2ccccc2)c2ccccc12", "inactive"],
  ["COc1cc2c(cc1OCCCCCN1CCN(CCCCCOc3cc4c(cc3OC)C(=O)C3CCC[C@H]3C=N4)CC1)N=C[C@@H]1CCCC1C2=O (stereo not given in full)", "inactive"],
  ["C#CCNCCCN1C(=O)c2ccc3c4c(ccc(c24)C1=O)C(=O)N(CCCNCC#C)C3=O", "active"],
  ["O=c1[nH]nc(-c2nn(-c3ccc(Cl)cc3)cc2O)o1", "active"]
]}

**Q:** Could you check what this test reported for `O=S(=O)(Nc1ccc2ccccc2c1)N1CCCCC1` ?
**A:** inactive

**Q:** Entry `COc1ccc(/C=C/C(=O)Nc2cc(/C=C\c3cc(OC)c(OC)c(OC)c3)cc(OC)c2OC)cc1OC` please
**A:** inactive

**Q:** Entry `CC[N-]c1nnnn1CC.[Au+].c1ccc([PH+](c2ccccc2)c2ccccc2)cc1` please
**A:** inactive

**Q:** Entry `COc1cc(-c2cc(-c3nc4ccc(F)cc4[nH]3)[nH]n2)cc(OC)c1OC` please
**A:** inactive

**Q:** Entry `O=S(=O)(Nc1cc(F)cc(F)c1)c1ccc(-c2cnc(C3CC3)o2)cc1` please
**A:** inactive

**Q:** Entry `COc1ccc2nc3c(n2c1)C(=O)C(=O)c1ccccc1-3` please
**A:** inactive

**Q:** Entry `COc1cc2nccc(Oc3ccc(NC(=O)C4(C(=O)Nc5ccc(F)cc5)CC4)cc3)c2cc1OC(=O)c1ccc(N)cc1` please
**A:** inactive

**Q:** Entry `Cc1cccc(-n2cnc3cc(C(=O)N4CCCCC4)ccc32)c1` please
**A:** inactive

**Q:** Entry CCCCCCC(O)(c1ccc(F)cc1)C(CN1CCOCC1)c1ccccc1 (stereo not given) please
**A:** inactive

**Q:** Entry `COc1ccc(CCc2nc3cc(-c4c(C)noc4C)ccc3n2CCN2CCOCC2)cc1` please
**A:** inactive

**Q:** Entry COc1ccc(C(O)c2cc3c(N)c(C(=O)Nc4ccccc4)sc3nc2C)cc1 (stereo not given) please
**A:** active

---

# Test system: HCT-116 colon
# protocol.details: NCI tumour cell line growth inhibition, 48 h
Measured TGI values are reported for all entries that follow.

{"columns": ["compound", "experimental.endpoint", "value.measured"],
 "data": [
  ["CCOC(=O)/C=C/C1OC(C)(C)OC1/C=C/C(=O)OCC (stereo not drawn)", "TGI", "> 100 µM"],
  ["N/N=c1\\c2ccccc2c2ccc3c4ccccc4/c(=N\\N)c3c12", "TGI", "> 100 µM"]
]}

**Q:** For HCT-116 colon, provide TGI of COc1ccc(N(CN2C(=O)CCC2OC)C(C)=O)cc1 (stereo not drawn) please.
**A:** > 100 µM

---

# System: SN12C renal
# protocol.details: NCI tumour cell line growth inhibition, 48 h
Measured TGI values are reported for all entries that follow.

Look over these answered cases.
{"columns": ["compound", "TGI"],
 "data": [
  ["O=C(O)CCC1(C(=O)O)CCC(=O)c2ccccc21 (stereo not drawn)", "> 100 µM"],
  ["N#CNC(=NCc1ccccc1)NCc1ccccc1", "> 100 µM"]
]}

Now look at this one.
**Q:** For SN12C renal, provide TGI of N#CC(C(=O)C(N)=O)c1ccccc1Cl (stereo not drawn) please.
**A:** > 100 µM
